- assayComment: Cytotoxicity against HEK293 cells assessed as inhibition of cell proliferation at 3 umol/L after 72 hrs by MTT assay relative to control
- Assay type: cell-based
- assayConditions: human
valueType: inhibition at 72 h, 3 µM (%)
Form entry: value (%) — number only.

Please look up its inhibition at 72 h, 3 µM: Cc1ncc([N+](=O)[O-])n1CC(O)CNC1CCN(c2c(F)cc3c(=O)c(C(=O)O)cn(C4CC4)c3c2Cl)C1 (stereo unspecified)
13

----------
- assayComment: Cytotoxicity against MEF assessed as inhibition of cell proliferation at 3 x 10^2 umol/L after 72 hrs by MTT assay relative to control
- Assay type: cell-based
- assayConditions: mouse, MEF cells
valueType: inhibition at 72 h, 300 umol/L (%)
Form entry: value (%) — number only.

Please look up its inhibition at 72 h, 300 umol/L: Cc1ncc([N+](=O)[O-])n1CC(O)CNC1CCN(c2c(F)cc3c(=O)c(C(=O)O)cn(C4CC4)c3c2Cl)C1 (stereo unspecified)
58.1

----------
- assayComment: Cytotoxicity against mouse C2C12 cells assessed as inhibition of cell proliferation at 10^-2 umol/L after 72 hrs by MTT assay relative to control
- Format: cell-based
valueType: inhibition at 72 h, 0.01 umol/L (%)
Form entry: value (%) — number only.

Please look up its inhibition at 72 h, 0.01 umol/L: Cc1ncc([N+](=O)[O-])n1CC(O)CNC1CCN(c2c(F)cc3c(=O)c(C(=O)O)cn(C4CC4)c3c2Cl)C1 (stereo unspecified)
0

----------
- assayComment: Cytotoxicity against HEK293 cells assessed as inhibition of cell proliferation at 10^-2 umol/L after 72 hrs by MTT assay relative to control
- Format: cell-based
- assayConditions: human
valueType: inhibition at 72 h, 0.01 umol/L (%)
Form entry: value (%) — number only.

Please look up its inhibition at 72 h, 0.01 umol/L: Cc1ncc([N+](=O)[O-])n1CC(O)CNC1CCN(c2c(F)cc3c(=O)c(C(=O)O)cn(C4CC4)c3c2Cl)C1 (stereo unspecified)
0.1

----------
Field: MIC. Provide a value for each of the molecules that follow.
- Test system: Pseudomonas aeruginosa
- assayComment: Antibacterial activity against Pseudomonas aeruginosa ATCC 27853 after 24 hrs by microbroth dilution method
- Type: functional
- assayConditions: ATCC 27853, 24 h
Form entry: value (µg/mL) — number only.

Please look up its MIC: Cc1ncc([N+](=O)[O-])n1CC(O)CNC1CCN(c2c(F)cc3c(=O)c(C(=O)O)cn(C4CC4)c3c2Cl)C1 (stereo not drawn)
0.25

Please look up its MIC: CCn1cc(C(=O)O)c(=O)c2cc(F)c(N3CCN(CC(O)Cn4c(C)nc(N5CCOCC5)c4[N+](=O)[O-])CC3)cc21 (stereo not drawn)
2

Please look up its MIC: Cc1ncc([N+](=O)[O-])n1CC(O)CN1CCN(c2cc3c(cc2F)c(=O)c(C(=O)O)cn3C2CC2)CC1 (stereo not drawn)
0.5
